Assay: Octanol-Japanese pharmacopoeia second fluid distribution coefficient, Log D after 30 mins by shake-flask method
Assay type: physicochemical
endpoint: logD at 0.5 h

smiles | obs value
CC(=O)[C@H]1CC[C@H](NC(=O)c2cc3cc(Cl)ccc3[nH]2)[C@H](NC(=O)c2nc3c(s2)CN(C)CC3)C1 | 2.4
CCN(C)C(=O)[C@H]1CC[C@H](NC(=O)c2cc3cc(Cl)ccc3[nH]2)[C@H](NC(=O)c2nc3c(s2)CN(C)CC3)C1 | 3.2
CC(C)NC(=O)[C@H]1CC[C@H](NC(=O)c2cc3cc(Cl)ccc3[nH]2)[C@H](NC(=O)c2nc3c(s2)CN(C)CC3)C1 | 3.6
CCNC(=O)[C@H]1CC[C@H](NC(=O)c2cc3cc(Cl)ccc3[nH]2)[C@H](NC(=O)c2nc3c(s2)CN(C)CC3)C1 | 3.2
CN1CCc2nc(C(=O)N[C@@H]3C[C@@H](CO)CC[C@@H]3NC(=O)c3cc4cc(Cl)ccc4[nH]3)sc2C1 | 2.8
CN1CCc2nc(C(=O)N[C@@H]3C[C@@H](C(=O)N(C)C)CC[C@@H]3NC(=O)c3cc4cc(Cl)ccc4[nH]3)sc2C1 | 2.8
CN1CCc2nc(C(=O)N[C@@H]3C[C@@H](CS(C)(=O)=O)CC[C@@H]3NC(=O)c3cc4cc(Cl)ccc4[nH]3)sc2C1 | 2.5
CCN(CC)C(=O)[C@H]1CC[C@H](NC(=O)c2cc3cc(Cl)ccc3[nH]2)[C@H](NC(=O)c2nc3c(s2)CN(C)CC3)C1 | 3.4
CN1CCc2nc(C(=O)N[C@@H]3C[C@@H](C(=O)N(C)CCO)CC[C@@H]3NC(=O)c3cc4cc(Cl)ccc4[nH]3)sc2C1 | 2.3
CCCN(CCC)C(=O)[C@H]1CC[C@H](NC(=O)c2cc3cc(Cl)ccc3[nH]2)[C@H](NC(=O)c2nc3c(s2)CN(C)CC3)C1 | 3.6
COCCN(C)C(=O)[C@H]1CC[C@H](NC(=O)c2cc3cc(Cl)ccc3[nH]2)[C@H](NC(=O)c2nc3c(s2)CN(C)CC3)C1 | 2.8
CN1CCc2nc(C(=O)N[C@@H]3C[C@@H](C(=O)N4CCCC4)CC[C@@H]3NC(=O)c3cc4cc(Cl)ccc4[nH]3)sc2C1 | 3.2
